The following compounds are shown together with reported pIC50 values.
biological target: Grp94 (Canis lupus familiaris, UniProt P41148); settings: read-out: Grp94; FP competition, 6 nM Cy3B-GM, 10 nM protein, 4° C. for 24 h
Sequence (P41148 with tags, fused parts or gaps DELINS287-327GGGG): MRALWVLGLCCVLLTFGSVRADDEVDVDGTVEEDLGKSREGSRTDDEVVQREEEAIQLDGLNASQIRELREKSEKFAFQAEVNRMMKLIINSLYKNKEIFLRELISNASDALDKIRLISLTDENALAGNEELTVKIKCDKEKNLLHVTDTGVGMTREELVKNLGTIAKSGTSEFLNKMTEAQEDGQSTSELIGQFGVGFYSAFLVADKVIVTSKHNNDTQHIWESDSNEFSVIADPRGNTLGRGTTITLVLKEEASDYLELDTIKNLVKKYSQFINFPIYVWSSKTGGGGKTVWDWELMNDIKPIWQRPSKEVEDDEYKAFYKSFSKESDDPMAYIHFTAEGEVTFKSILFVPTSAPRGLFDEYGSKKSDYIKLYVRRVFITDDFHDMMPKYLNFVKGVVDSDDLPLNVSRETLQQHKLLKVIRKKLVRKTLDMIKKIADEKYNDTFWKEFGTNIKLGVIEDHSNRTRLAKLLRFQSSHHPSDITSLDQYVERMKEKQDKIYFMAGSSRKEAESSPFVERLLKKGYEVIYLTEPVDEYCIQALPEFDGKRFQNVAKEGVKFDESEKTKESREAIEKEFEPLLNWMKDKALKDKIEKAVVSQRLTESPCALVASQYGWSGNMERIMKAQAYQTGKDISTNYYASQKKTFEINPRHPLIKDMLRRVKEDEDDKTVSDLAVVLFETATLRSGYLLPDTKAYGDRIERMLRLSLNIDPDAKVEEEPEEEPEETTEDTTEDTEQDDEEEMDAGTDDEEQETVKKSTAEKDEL
// scale note: pIC50 = -log10(conc_M); give the bare number

# annotated cases, reported pIC50 shown
{"COMPOUND": "C#CCCCn1cnc(N)c2nc(Sc3ccccc3OC(F)(F)F)nc1-2", "pIC50": 3.97}
{"COMPOUND": "C#CCCCn1cnc(N)c2nc(Sc3cc(Br)ccc3OC)nc1-2", "pIC50": 5.64}
{"COMPOUND": "C[C@H](O)CNCCn1c(Sc2ccc(Cl)cc2Cl)nc2c(N)ncnc21", "pIC50": 6.46}
{"COMPOUND": "CC(C)NCCCn1c(Sc2ccc(Cl)cc2F)nc2c(N)ncnc21", "pIC50": 5.82}
{"COMPOUND": "CC(C)NCCCn1c(Sc2ccc(Cl)cc2I)nc2c(N)ncnc21", "pIC50": 6.68}

Look at this compound and give its reported pIC50. C#CCCCn1c(Sc2ccc(Cl)cc2C(F)(F)F)nc2c(N)ncnc21 [PDP-117A]
5.80

Try this compound next: C#CCCCn1c(Sc2ccc(Cl)c(Cl)c2Cl)nc2c(N)ncnc21 [PDP-126A]
6.57

Ref: patent US12600725B2
